Test system: LOC_OS05G16824-cb004
Experiment: thermal shift delta Tm vs DMSO control; higher = stronger stabilization (binding);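 note: purified Escherichia coli-expressed rice kinase domain construct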
Conditions: 12.5 µM; protein concentration 2 µM
Rule: MET for thermal shift delta Tm not less than -1 °C, NOT MET for anything less.

Here's what some known entries look like.
compound: Cc1ncc(CCCN(C)C)cc1Nc1ncc2c(n1)-c1ccc(C(F)(F)F)cc1NC(=S)C2
study.system: LOC_OS05G16824-cb004
category.label: MET
--
compound: Cn1cc(-c2ccc(F)c(C(F)(F)F)c2)nc1C1CCN(c2ncnc3[nH]ncc23)CC1
study.system: LOC_OS05G16824-cb004
category.label: NOT MET
--
compound: Cn1ncc(Cl)c1-c1cc(C(=O)N[C@H](CN)Cc2cccc(F)c2)sc1Cl
study.system: LOC_OS05G16824-cb004
category.label: NOT MET

Does the compound CO[C@H]1C[C@@H]2CC[C@@H](C)[C@@](O)(O2)C(=O)C(=O)N2CCCC[C@H]2C(=O)O[C@H]([C@H](C)C[C@@H]2CC[C@@H](O)[C@H](OC)C2)CC(=O)[C@H](C)/C=C(\C)[C@@H](O)[C@@H](OC)C(=O)[C@H](C)C[C@H](C)/C=C/C=C/C=C/1C [Rapamycin (Sirolimus)] have recorded thermal shift delta Tm that is -1 °C or more?
MET

Textbook exercise: given the entry C=CC(=O)N1CCC(Oc2cc3c(Nc4ccc(Cl)c(Cl)c4F)ncnc3cc2OC)CC1 [Poziotinib (HM781-36B)] , state whether its thermal shift delta Tm is greater than or equal to -1 °C.
MET

Entry CN1CCN(Cc2ccc(-c3cnc4[nH]cc(-c5ccc6[nH]ccc6c5)c4c3)cc2)CC1 : is its thermal shift delta Tm no less than -1 °C?
MET

For this compound, is measured thermal shift delta Tm -1 °C or higher? C[C@@H]1COC(Nc2ccc3ncnc(Nc4ccc(OCc5nccs5)c(Cl)c4)c3c2)=N1 [Varlitinib]
NOT MET

Textbook exercise: given the entry Cc1ccc(S(=O)(=O)/C=C/C#N)cc1 , state whether its thermal shift delta Tm is greater than or equal to -1 °C.
NOT MET

For this compound, is measured thermal shift delta Tm -1 °C or higher? CN(C)CCOc1ccc(-c2nc(-c3ccncc3)c(-c3ccc4c(c3)CC/C4=N\O)[nH]2)cc1
NOT MET

* * *

Test system: LOC_OS01G67340-cb003
Assay: thermal shift delta Tm vs DMSO control; higher = stronger stabilization (binding)
Conditions: 12.5 µM; protein concentration 2 µM
readout: thermal shift delta Tm (°C)
Please state the figure in °C; there is no need to write the unit.

Worked cases, thermal shift delta Tm given:
compound: COC1(c2sc3c(N4CCOCC4)nc(-c4cnc(N)nc4)nc3c2C)COC1
endpoint.unit: °C
thermal shift delta Tm: 0.5

compound: CCCCNc1ncc(C(=O)NCc2ccc(-n3ccnc3)cc2)c(NC2CCC(O)CC2)n1 (stereo unspecified)
endpoint.unit: °C
thermal shift delta Tm: 10.2

compound: COc1cc(OC)c(C=C2C(=O)Nc3ccccc32)c(OC)c1
endpoint.unit: °C
thermal shift delta Tm: 0.36

compound: COc1ccc(-c2nc(N3CCOCC3)c3sc(CN(C)c4ncc(C(=O)NO)cn4)cc3n2)cn1
endpoint.unit: °C
thermal shift delta Tm: 0.21

compound: CCCCCCCCCC(=O)CC(O)S(=O)(=O)O (stereo unspecified) [Sodium Houttuyfonate]
endpoint.unit: °C
thermal shift delta Tm: 0.28

Hello, please tell me recorded thermal shift delta Tm for this one: COc1cc2c(cc1OC)[C@@H]1C(=O)c3ccc4c(c3O[C@@H]1CO2)C=CC(C)(C)O4
0.31

Quickly give me recorded thermal shift delta Tm for CCN1CCN(Cc2ccc(C(=O)Nc3ccc(C)c(Oc4ccc5c(c4)CC(=O)N5)c3)cc2C(F)(F)F)CC1
1.05

Consider the compound CC(C)(O)CC(=O)NCCn1ccc2ncnc(Nc3ccc(Oc4cccc(C(F)(F)F)c4)c(Cl)c3)c21 . State its measured thermal shift delta Tm.
1.33

Read the entry Cn1cc(-c2ccc3ncc(Cc4ccc5ncccc5c4)n3n2)cn1 and write its reported thermal shift delta Tm.
0.76

Name the recorded thermal shift delta Tm of the compound listed here: Cn1c(Nc2ccc(C(F)(F)F)cc2)nc2cc(Oc3ccnc(-c4ncc(C(F)(F)F)[nH]4)c3)ccc21
1.4
